# target-under-test: KRAS G12V (Homo sapiens (Human), UniProt P01116, G12V)
# Sequence (P01116-2 other isoform, or with tags, fused parts or gaps G12V): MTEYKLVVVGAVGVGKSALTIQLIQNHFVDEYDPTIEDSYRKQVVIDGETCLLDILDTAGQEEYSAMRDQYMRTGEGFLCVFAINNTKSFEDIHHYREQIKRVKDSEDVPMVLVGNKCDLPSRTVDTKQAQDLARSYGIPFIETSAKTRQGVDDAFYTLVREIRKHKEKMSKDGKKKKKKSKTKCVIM
# experimental-protocol: KRAS G12V degradation in SW620 cells (Western blot, DC50)
# Assay type: cell-based
# measurement-setup: 24 hours
reported-endpoint: DC50

CCc1cccc2cc(O)cc(-c3ncc4c(N5CCC[C@@](C)(O)C5)nc(OCC5(CN6CCC7(CC6)CC(N6CCN(c8ccc9c(c8)CN([C@H]8CCC(=O)NC8=O)C9=O)CC6)C7)CC5)nc4c3F)c12; < 1 nM
CCc1c(F)ccc2cc(O)cc(-c3ncc4c(N5CCC[C@@](C)(O)C5)nc(OCC5(CN6CC7(CCC(F)(CN8CCN(c9ccc(C(=O)N[C@H]%10CCC(=O)NC%10=O)c(F)c9)CC8)CC7)C6)CC5)nc4c3F)c12; > 100 nM
C[C@@]1(O)CCCN(c2nc(OCC3(CN4CCC5(CC4)CC(CN4CCN(c6ccc7c(c6)CN([C@H]6CCC(=O)NC6=O)C7=O)CC4)C5)CC3)nc3c(F)c(-c4cc(O)cc5cccc(Cl)c45)ncc23)C1; < 1 nM
CCc1c(F)ccc2cc(O)cc(-c3ncc4c(N5CCC[C@@](C)(O)C5)nc(OCC5(CN6CCC(CN7CCN(c8ccc9c(c8)CN([C@H]8CCC(=O)NC8=O)C9=O)CC7)(OC)CC6)CC5)nc4c3F)c12; < 1 nM
CCc1c(F)ccc2cc(O)cc(-c3ncc4c(N5CCC[C@@](C)(O)C5)nc(OCC5(CN6CCC7(CC6)CCN(C6CN(c8ccc9c(c8)CN(C8CCC(=O)NC8=O)C9=O)C6)CC7)CC5)nc4c3F)c12 (stereo partly drawn); 1 to 10 nM
CCc1c(F)ccc2cc(O)cc(-c3ncc4c(N5CCC[C@@](C)(O)C5)nc(OCC5(CN6CCN(CC7CN(c8ccc9c(c8)CN(C8CCC(=O)NC8=O)C9=O)C7)CC6)CC5)nc4c3F)c12 (stereo partly drawn); < 1 nM
CCc1c(F)ccc2cc(O)cc(-c3ncc4c(N5CCCOC6CC65)nc(OCC5(CN6CCC7(CC6)CC(CN6CCN(c8ccc9c(c8)CN([C@H]8CCC(=O)NC8=O)C9=O)CC6)C7)CC5)nc4c3F)c12 (stereo partly drawn); 1 to 10 nM
CCc1c(F)ccc2cc(O)cc(-c3ncc4c(N5CCCC6(CC(O)C6)C5)nc(OCC5(CN6CCC(CN7CCN(c8ccc9c(c8)CN([C@H]8CCC(=O)NC8=O)C9=O)CC7)CC6)CC5)nc4c3F)c12 (stereo partly drawn); 1 to 10 nM
CCc1c(F)ccc2cc(O)cc(-c3ncc4c(N5CCC[C@@](C)(O)C5)nc(OCC5(CN6CCN(C7CC8(CCN(c9ccc%10c(c9)CN(C9CCC(=O)NC9=O)C%10=O)CC8)C7)CC6)CC5)nc4c3F)c12 (stereo partly drawn); < 1 nM
CCc1c(F)ccc2cc(O)cc(-c3ncc4c(N5CCC[C@@](C)(O)C5)nc(OCC5(CN6CCC7(CC6)CN(C6CCN(c8ccc9c(c8)CN(C8CCC(=O)NC8=O)C9=O)CC6)C7)CC5)nc4c3F)c12 (stereo partly drawn); < 1 nM

// DC50 lookup, key: `C[C@@]1(O)CCCN(c2nc(OCC3(CN4CCC(CN5CCN(c6ccc7c(c6)CN([C@H]6CCC(=O)NC6=O)C7=O)CC5)CC4)CC3)nc3c(F)c(-c4cc(O)cc5ccc(F)c(F)c45)ncc23)C1`
1 to 10 nM

Need DC50 of `CCc1c(F)ccc2cc(O)cc(-c3ncc4c(N5CCC[C@@](C)(O)C5)nc(OCC5(CN6CCC(C)(CN7CCN(c8ccc9c(c8)CN([C@H]8CCC(=O)NC8=O)C9=O)CC7)CC6)CC5)nc4c3F)c12` , thanks.
< 1 nM

Returns the measured DC50 for the input compound. Input: `CCc1cccc2cc(O)cc(-c3ncc4c(N5CCNC(=O)CC5)nc(OCC5(CN6CCC7(CC6)CC(CN6CCN(c8ccc9c(c8)CN([C@H]8CCC(=O)NC8=O)C9=O)CC6)C7)CC5)nc4c3F)c12`
> 100 nM
